// reported viability, T/C per item
System: K12877-001-R-J1-PDC complex spheroid viability
Assay: Anticancer human tumor K12877-001-R-J1-PDC patient-derived lung adenocarcinoma cell line growth inhibition [RAS]
Conditions: second compound 0.003 µM; first compound 0.00316 µM; stronger effect = lower value
Dear colleague, please return just the value in %, with no unit written.

Compound: C=CC(=O)Nc1cc(Nc2nccc(-c3cn(C)c4ccccc34)n2)c(OC)cc1N(C)CCN(C)C + CCn1c(-c2cc(N3CCN(C)CC3)cnc2C(C)OC)c2c3cc(ccc31)-c1csc(n1)CC(NC(=O)C1CC1C)C(=O)N1CCCC(N1)C(=O)OCC(C)(C)C2
Tested System: K12877-001-R-J1-PDC complex spheroid viability
viability, T/C / %: 73.7
--
Compound: CCN1CCN(Cc2ccc(Nc3ncc(F)c(-c4cc(F)c5nc(C)n(C(C)C)c5c4)n3)nc2)CC1 + CCn1c(-c2cc(N3CCN(C)CC3)cnc2C(C)OC)c2c3cc(ccc31)-c1csc(n1)CC(NC(=O)C1CC1C)C(=O)N1CCCC(N1)C(=O)OCC(C)(C)C2
Tested System: K12877-001-R-J1-PDC complex spheroid viability
viability, T/C / %: 73.7

Turning now to a further compound:
Summary line: C=CC(=O)Nc1cc(Nc2nccc(-c3cn(C)c4ccccc34)n2)c(OC)cc1N(C)CCN(C)C + CCn1c(-c2cccnc2C(C)OC)c2c3cc(ccc31)N1CCOC(CC(NC(=O)C(C(C)C)N(C)C(=O)C3(F)CCN(C(=O)C#CC(C)(C)N(C)C)CC3)C(=O)N3CCCC(N3)C(=O)OCC(C)(C)C2)C1 , K12877-001-R-J1-PDC complex spheroid viability, reported viability, T/C = 78.2

* * *

Test system: K12877-001-R-J1-PDC complex spheroid viability
Experiment: Anticancer human tumor K12877-001-R-J1-PDC cell line growth inhibition [RAS];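 note: spheroids exposed to agents for one week before readout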;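 for viability, T/C: tumour cells co-cultured with HUVEC and mesenchymal stem cells in spheroids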
Conditions: second compound 0.0316 µM; first compound 0.316 µM; stronger effect = lower value
Metric Name: viability, T/C (%)
State just the number; it will be interpreted in %.

Compound: Nc1ccn(C2OC(CO)C(O)C2(F)F)c(=O)n1 (centres undefined) + C=CC(=O)N1CCN(c2nc(OCC3CCCN3C)nc3c(F)c(-c4nc(N)cc(C)c4C(F)(F)F)c(Cl)cc23)C(C)C1
viability, T/C, %: 5.01
//
Compound: Cc1nc(N2CCC3(CC2)COC(C)C3N)c(CO)nc1Sc1ccnc(N)c1Cl (centres undefined) + C=CC(=O)N1CCN(c2nc(OCC3CCCN3C)nc3c(F)c(-c4nc(N)cc(C)c4C(F)(F)F)c(Cl)cc23)C(C)C1
viability, T/C, %: 88.3
//
Compound: CC1(O)CCCC1n1c(=O)c(C(F)F)cc2cnc(NC3CCN(S(C)(=O)=O)CC3)nc21 (centres undefined) + C#Cc1c(F)ccc2cc(O)cc(-c3ncc4c(N5CC6CCC(C5)N6)nc(OCC56CCCN5CC(F)C6)nc4c3F)c12
viability, T/C, %: 77.2

Attention now turns to another entry.
viability, T/C reading for CCN1CCN(Cc2ccc(Nc3ncc(F)c(-c4cc(F)c5nc(C)n(C(C)C)c5c4)n3)nc2)CC1 + C=CC(=O)N1CCN(c2nc(OCC3CCCN3C)nc3c(F)c(-c4nc(N)cc(C)c4C(F)(F)F)c(Cl)cc23)C(C)C1 : 75.8

* * *

System: K12877-001-R-J1-PDC complex spheroid viability
Test: Anticancer human tumor K12877-001-R-J1-PDC cell line growth inhibition [RAS];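 note: spheroids exposed to agents for one week before readout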;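 for viability, T/C: tumour cells co-cultured with HUVEC and mesenchymal stem cells in spheroids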
Conditions: second compound 0.316 µM; first compound 1 µM; stronger effect = lower value
Metric Name: viability, T/C (%)
Please respond with the number in % and leave the unit unwritten.

Use the examples below as a reference point.
Compound: CCN1CCN(Cc2ccc(Nc3ncc(F)c(-c4cc(F)c5nc(C)n(C(C)C)c5c4)n3)nc2)CC1 + C#Cc1c(F)ccc2cc(O)cc(-c3ncc4c(N5CC6CCC(C5)N6)nc(OCC56CCCN5CC(F)C6)nc4c3F)c12
viability, T/C / %: 108
--
Compound: O=C(c1ccc(F)c(F)c1Nc1ccc(I)cc1F)N1CC(O)([C@@H]2CCCCN2)C1 + C=CC(=O)N1CCN(c2nc(OCC3CCCN3C)nc3c(F)c(-c4nc(N)cc(C)c4C(F)(F)F)c(Cl)cc23)C(C)C1
viability, T/C / %: 59
--
Compound: Nc1ccn(C2OC(CO)C(O)C2(F)F)c(=O)n1 (stereo not drawn) + C=CC(=O)N1CCN(c2nc(OCC3CCCN3C)nc3c(F)c(-c4nc(N)cc(C)c4C(F)(F)F)c(Cl)cc23)C(C)C1
viability, T/C / %: 4.03
--
Compound: C[C@@H](NC(=O)c1ncnc(N)c1Cl)c1ncc(C(=O)Nc2cc(C(F)(F)F)c(Cl)cn2)s1 + C#Cc1c(F)ccc2cc(O)cc(-c3ncc4c(N5CC6CCC(C5)N6)nc(OCC56CCCN5CC(F)C6)nc4c3F)c12
viability, T/C / %: 101
--
Compound: C=CC(=O)Nc1cc(Nc2nccc(-c3cn(C)c4ccccc34)n2)c(OC)cc1N(C)CCN(C)C + C#Cc1c(F)ccc2cc(O)cc(-c3ncc4c(N5CC6CCC(C5)N6)nc(OCC56CCCN5CC(F)C6)nc4c3F)c12
viability, T/C / %: 102

Input CC(Nc1ccc2c(c1)OCCn1cc(N3C(=O)OCC3C(F)F)nc1-2)C(N)=O (stereo not drawn) + C=CC(=O)N1CCN(c2nc(OCC3CCCN3C)nc3c(F)c(-c4nc(N)cc(C)c4C(F)(F)F)c(Cl)cc23)C(C)C1 . Output viability, T/C: 50.9

# viability, T/C (compound: C[C@@H](NC(=O)c1ncnc(N)c1Cl)c1ncc(C(=O)Nc2cc(C(F)(F)F)c(Cl)cn2)s1 + C=CC(=O)N1CCN(c2nc(OCC3CCCN3C)nc3c(F)c(-c4nc(N)cc(C)c4C(F)(F)F)c(Cl)cc23)C(C)C1 ) is 83.6

// viability, T/C lookup, compound = CCC(CC)c1cc(NC2CCC(N)C2)n2nccc2n1 (stereo not drawn) + C#Cc1c(F)ccc2cc(O)cc(-c3ncc4c(N5CC6CCC(C5)N6)nc(OCC56CCCN5CC(F)C6)nc4c3F)c12 , result: 83.6

* * *

System: K12877-001-R-J1-PDC complex spheroid viability
Assay: Anticancer human tumor K12877-001-R-J1-PDC cell line growth inhibition [RAS];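 note: spheroids exposed to agents for one week before readout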
Conditions: curve of first compound; second compound 0.000949 µM
Source text: RAS pathway inhibitors in Combinations in Complex Spheroids A high-throughput screen of multi-cell type tumor spheroids was designed to identify active combinations of RAS pathway inhibitors and targeted small molecules. Complex spheroids include a stromal component modeled by human endothelial cells (HUVEC) and fibroblasts modeled by human mesenchymal stem cells (MSCs). […] Compounds. […] If the clinical Cmax for an agent had not been determined, the highest concentration tested was 10 microM. […]
Metric Name: IC50

Entry O=C(c1ccc(F)c(F)c1Nc1ccc(I)cc1F)N1CC(O)([C@@H]2CCCCN2)C1 + CCn1c(-c2cc(N3CCN(C)CC3)cnc2C(C)OC)c2c3cc(ccc31)-c1csc(n1)CC(NC(=O)C1CC1C)C(=O)N1CCCC(N1)C(=O)OCC(C)(C)C2 ; assay system K12877-001-R-J1-PDC complex spheroid viability; IC50 recorded at > 1000 nM

K12877-001-R-J1-PDC complex spheroid viability assay, compound CC(=O)OC12COC1CC(O)C1(C)C(=O)C(O)C3=C(C)C(OC(=O)C(O)C(NC(=O)OC(C)(C)C)c4ccccc4)CC(O)(C(OC(=O)c4ccccc4)C21)C3(C)C (stereo not drawn) + CCn1c(-c2cccnc2C(C)OC)c2c3cc(ccc31)N1CCOC(CC(NC(=O)C(C(C)C)N(C)C(=O)C3(F)CCN(C(=O)C#CC(C)(C)N(C)C)CC3)C(=O)N3CCCC(N3)C(=O)OCC(C)(C)C2)C1 , recorded IC50 = < 31.6 nM

Kindly note: K12877-001-R-J1-PDC complex spheroid viability, NC1c2ccccc2OC12CCN(c1cnc3c(N4CCCc5ncccc54)n[nH]c3n1)CC2 (stereo not drawn) + CCn1c(-c2cccnc2C(C)OC)c2c3cc(ccc31)N1CCOC(CC(NC(=O)C(C(C)C)N(C)C(=O)C3(F)CCN(C(=O)C#CC(C)(C)N(C)C)CC3)C(=O)N3CCCC(N3)C(=O)OCC(C)(C)C2)C1 , IC50 value reported: 580 nM

# IC50 measured on K12877-001-R-J1-PDC complex spheroid viability for item C=CC(=O)N1CCN(c2nc(OCC3CCCN3C)nc3c(F)c(-c4nc(N)cc(C)c4C(F)(F)F)c(Cl)cc23)C(C)C1 (stereo not drawn) + CCn1c(-c2cc(N3CCN(C)CC3)cnc2C(C)OC)c2c3cc(ccc31)-c1csc(n1)CC(NC(=O)C1CC1C)C(=O)N1CCCC(N1)C(=O)OCC(C)(C)C2 = > 1000 nM

Tested system K12877-001-R-J1-PDC complex spheroid viability; IC50 recorded for C=CC(=O)Nc1cc(Nc2nccc(-c3cn(C)c4ccccc34)n2)c(OC)cc1N(C)CCN(C)C + CCn1c(-c2cc(N3CCN(C)CC3)cnc2C(C)OC)c2c3cc(ccc31)-c1csc(n1)CC(NC(=O)C1CC1C)C(=O)N1CCCC(N1)C(=O)OCC(C)(C)C2 was > 1000 nM
